z-score values, listed per item
# Procedure Text: basal 3T3-L1 adipocyte mitochondrial potential changes, profiling panel, cell-based, JC-1 fluorescence, 3T3-L1 adipocytes, 24 h, 100 nL compound (AID 1168); also: test concentration not given here
# Assay Conditions: JC-1 mitochondrial fluorescence, higher = more signal, called active from +8 up or from −8 down

| Compound | z-score |
| --- | --- |
| COc1ccc(C#Cc2ccc3c(c2)[C@]2(C(=O)N3)[C@H](c3ccc(O)cc3)N3[C@H](c4ccccc4)[C@H](c4ccccc4)OC(=O)[C@H]3[C@@H]2C(=O)N2CCCCCCC2)cc1 | 3.48 |
| COC(=O)[C@@]1(Cc2ccccc2)[C@H]2c3cc(C(=O)N(C)C)n(Cc4cc(C)n(C)n4)c3C[C@H]2CN1C(=O)c1ccccc1 | -1.24 |
| CC(=O)NCCCC[C@@H]1NC(=O)[C@@H]2C[C@H](C(=O)NCCCCN(C)C)[C@H](c3ccc(O)cc3)N2C1=O | 1.05 |
| Cc1ccc([C@H]2[C@H](C(=O)O)[C@H](Sc3ccccc3)[C@@H](C(C)C)N2S(=O)(=O)c2ccc(C)cc2)cc1 | 0.327 |
| [N-]=[N+]=Nc1ccccc1[C@@H]1OC(c2ccc(OCCCO)cc2)=N[C@]1(CCS(=O)(=O)c1ccccc1)C(=O)N1CCOCC1 | 0.406 |
| CC(C)CNC(=O)[C@@]1(c2ccc([N+](=O)[O-])cc2)CC(=O)N(CC23CC4CC(CC(C4)C2)C3)[C@@H]1c1ccc(CO)cc1I | -0.744 |
| COc1cc(C(O)C2C=CC3C(=O)N(c4ccccc4)C(=O)C3N2Nc2ccc(C#N)cc2)cc(OC)c1OC (stereo unspecified) | -1.51 |
| CCN(CC)c1ccc(N2CC=CC34O[C@@H]5/C=C\CCCOC(=O)C5[C@H]3C(=O)N(C(CO)C(C)C)[C@@H]4C2=O)cc1 (stereo partly specified) | -0.0916 |
| O=C(O)[C@H]1C[C@H]2C(=O)NCC(=O)N2[C@H]1c1ccc(O)cc1 | -0.262 |
| COCCOC(=O)N1C(=O)[C@@]2(c3cc(C#CCCO)ccc31)[C@H](c1ccc(O)cc1)N1[C@H](c3ccccc3)[C@H](c3ccccc3)OC(=O)[C@H]1[C@@H]2C(N)=O | -1.44 |
| O=C/C=C/c1ccc(Cl)cc1 | -0.34 |
| COCCOC(=O)N1C(=O)[C@@]2(c3ccccc31)[C@H](C(=O)Nc1nc3ccccc3s1)[C@H]1C(=O)O[C@H](c3ccccc3)[C@H](c3ccccc3)N1[C@@H]2c1ccc(OCCO)cc1 | 1.68 |
| COc1c(C)cc(-c2cc3c(c(-c4ccc(Oc5ccccc5)cc4)n2)[Si](C(C)C)(C(C)C)OC3)cc1C | -0.528 |
| CC(C)Cc1ccc(CN2CC[C@@H](NS(=O)(=O)c3ccccc3)C2)cc1 | 0.787 |
| CCOC(=O)C[C@H]1[C@H](OC(=O)Cc2ccc3c(c2)OCO3)[C@@H](NC(=O)c2ccc(-c3ccccc3)cc2)c2cc(OCCCO)ccc2N1C(=O)c1ccccc1 | -0.288 |
| CC(C)(C)N1CC=CC23O[C@@H]4/C=C\CCCOC(=O)C4[C@H]2C(=O)N(CCO)[C@@H]3C1=O (stereo partly specified) | -0.79 |
| COc1ccc([Si](C)(C)[C@H]2[C@H](CCn3cc(CCO)nn3)O[C@@]3(C(=O)N(Cc4ccc(N5CCOC5=O)cc4)c4ccccc43)[C@@H]2C)cc1 | 0.854 |
| COc1ccc(NN2C(C(O)c3ccc(OC)c(OCc4ccccc4)c3)C=CC3C(=O)N(C4CCCCC4)C(=O)C32)cc1 (stereo unspecified) | 0.353 |
| CN1C=C(C(=O)OCCS(C)(=O)=O)C(C(=O)OCCS(C)(=O)=O)=CC(CCCO)=CC1C1CC1 (stereo unspecified) | 0.448 |
| C=CC[C@@]1(C(=O)N2CCOCC2)N=C(c2ccc(OCCCO)cc2)O[C@@H]1c1ccccc1N=[N+]=[N-] | 1.57 |
| C=CC(COC(C)=O)NS(=O)(=O)c1ccc(Br)cc1 (stereo unspecified) | -0.869 |
| CCCCC=C[C@@H](NC(=O)c1ccco1)c1ccccc1 | 0.0899 |
| CN(C)C(=O)[C@]1(CCC(=O)OC(C)(C)C)N=C(c2ccc(OCCCO)cc2)O[C@@H]1c1ccccc1N=[N+]=[N-] | 2.52 |
| Cc1ccccc1C(O)C1C=CC2C(=O)N(C)C(=O)C2N1N1CCCCC1 (stereo unspecified) | -1.01 |
| COC(=O)C1=CC(CCCO)=CC(C2CC2)N(Cc2sc3ccccc3c2Cl)C=C1C(=O)OC (stereo unspecified) | 0.235 |
| O=C1O[C@@H](c2ccccc2)[C@@H](c2ccccc2)N2[C@@H](c3ccccc3OCCO)[C@]3(C(=O)Nc4ccc(C#CC5(O)CCCCCC5)cc43)[C@@H](C(=O)Nc3nc4ccccc4s3)[C@H]12 | 2.71 |
| CC(=O)Nc1cc(Br)ccc1C(=O)O | -0.672 |
| CCOC(=O)C1=CC[C@@H](c2ccccc2Cl)N(S(=O)(=O)c2ccc(C)cc2)C1 | -0.0958 |
| C=CCNC(=O)[C@@H]1[C@H]2C(=O)O[C@H](c3ccccc3)[C@H](c3ccccc3)N2[C@H](c2ccc(OCCO)cc2)[C@@]12C(=O)Nc1ccccc12 | 1.01 |
| CC=CC(O)C1C=CC2C(=O)N(c3ccccc3)C(=O)C2N1Nc1ccc(C(C)C)cc1 (stereo unspecified) | -1.32 |
| O=c1cccc(CCc2ccccc2)o1 | -0.352 |

Recorded values, source PubChem BioAssay.
